# TARGET_OF_ASSAY: EGFR wildtype (Homo sapiens, UniProt P00533)
# Sequence (P00533 25-1210): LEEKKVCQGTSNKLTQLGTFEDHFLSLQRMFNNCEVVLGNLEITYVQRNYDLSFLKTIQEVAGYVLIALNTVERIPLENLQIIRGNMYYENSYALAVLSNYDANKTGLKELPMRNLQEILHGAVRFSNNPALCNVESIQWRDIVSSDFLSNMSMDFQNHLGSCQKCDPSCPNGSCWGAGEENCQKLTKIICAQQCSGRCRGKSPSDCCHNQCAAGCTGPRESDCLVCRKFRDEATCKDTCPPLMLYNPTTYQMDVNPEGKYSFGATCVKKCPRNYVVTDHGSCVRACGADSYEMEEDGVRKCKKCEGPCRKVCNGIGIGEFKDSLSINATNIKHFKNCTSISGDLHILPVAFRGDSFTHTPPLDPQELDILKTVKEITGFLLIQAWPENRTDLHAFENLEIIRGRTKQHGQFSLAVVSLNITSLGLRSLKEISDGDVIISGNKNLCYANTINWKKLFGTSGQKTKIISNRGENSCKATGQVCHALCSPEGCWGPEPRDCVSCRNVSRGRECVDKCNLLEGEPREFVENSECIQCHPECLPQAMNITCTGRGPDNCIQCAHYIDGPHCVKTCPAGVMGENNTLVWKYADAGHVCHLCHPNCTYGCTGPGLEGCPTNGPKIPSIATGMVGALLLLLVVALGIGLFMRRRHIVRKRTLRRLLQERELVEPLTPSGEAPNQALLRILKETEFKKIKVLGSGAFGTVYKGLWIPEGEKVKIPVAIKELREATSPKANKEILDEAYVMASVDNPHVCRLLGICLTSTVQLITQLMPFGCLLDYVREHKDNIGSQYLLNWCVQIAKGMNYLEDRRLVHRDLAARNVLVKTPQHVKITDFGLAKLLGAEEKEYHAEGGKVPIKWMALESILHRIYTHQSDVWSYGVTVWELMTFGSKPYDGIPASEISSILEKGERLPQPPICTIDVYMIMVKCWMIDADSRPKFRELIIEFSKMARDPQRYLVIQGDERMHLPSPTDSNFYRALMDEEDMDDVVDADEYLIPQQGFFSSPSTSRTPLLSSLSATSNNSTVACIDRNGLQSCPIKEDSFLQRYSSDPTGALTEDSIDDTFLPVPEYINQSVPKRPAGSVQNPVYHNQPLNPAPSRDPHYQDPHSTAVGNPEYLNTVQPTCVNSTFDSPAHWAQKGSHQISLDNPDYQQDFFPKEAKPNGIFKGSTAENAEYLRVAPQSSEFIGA
# MEASUREMENT_NOTES: Biochemical EGFR kinase assay (Lance Ultra TR-FRET), wildtype
# EXPERIMENTAL_CONTEXT: ATP at Km; read-out: IC50 WT, Km ATP
API: label(entry) gives Yes if the entry's IC50 is strictly smaller than 4 nM; on equality or larger values it gives No.

Worked cases, answers included:
compound="CC(C)(O)[C@H]1CC[C@@H](Nc2cc(Nc3ccnc(-c4cnn(S(=O)(=O)C5CC5)c4)n3)ncc2-c2cccc(F)n2)CC1 [Example 163]" target_of_assay="EGFR wildtype (Homo sapiens, UniProt P00533)" assigned_class=No
compound="CC(C)(O)[C@H]1CC[C@@H](Nc2cc(Nc3ccnc(-c4cnn(S(=O)(=O)C5CC5)c4)n3)ncc2-c2cnc(F)cn2)CC1 [Example 186]" target_of_assay="EGFR wildtype (Homo sapiens, UniProt P00533)" assigned_class=No
compound="CC(C)(F)c1ccc(-c2cnc(Nc3ccnc(-c4cnn(S(=O)(=O)C5CC5)c4)n3)cc2N[C@H]2CC[C@@H](C(C)(C)O)CC2)nc1 [Example 236]" target_of_assay="EGFR wildtype (Homo sapiens, UniProt P00533)" assigned_class=No

(Q) Identify whether the compound CC(C)(O)[C@H]1CC[C@@H](Nc2cc(Nc3ccnc(-c4cnn(S(=O)(=O)C5CC5)c4)n3)ncc2-c2ccc(C(=O)N3CCOCC3)cn2)CC1 [Example 201] records IC50 below 4 nM.
(A) Yes

(Q) Does CC(C)(O)c1ccc(-c2cnc(Nc3ccnc(-c4cnn(S(=O)(=O)C5CC5)c4)n3)cc2NC2CCN(CC(F)F)CC2)nc1 [Example 178] have IC50 strictly under 4 nM?
(A) No

(Q) Is the reported IC50 for CN(C)S(=O)(=O)c1ccc(-c2cnc(Nc3ccnc(-c4cnn(S(=O)(=O)C5CC5)c4)n3)cc2N[C@H]2CC[C@@H](CO)CC2)nc1 [Example 166] strictly below 4 nM?
(A) Yes
